Provenance of the data: BigSolDB 2.1

Conditions: in ethanol, 279.15 K
MEASURE NAME: solubility (mole fraction)

>>> measured_result("NC(=O)c1ccccc1N")
0.0356

====

Details: in isopropanol, 324.15 K
MEASURE NAME: solubility (mole fraction)

>>> measured_result("NC(=O)c1ccccc1N")
0.0844

====

Conditions: in isopentanol, 273.15 K
MEASURE NAME: solubility (mole fraction)

>>> measured_result("NC(=O)c1ccccc1N")
0.0117

====

Conditions: in methanol, 293.35 K
MEASURE NAME: solubility (mole fraction)

>>> measured_result("NC(=O)c1ccccc1N")
0.0905

====

Conditions: in ethyl acetate, 309.15 K
MEASURE NAME: solubility (mole fraction)

>>> measured_result("NC(=O)c1ccccc1N")
0.123
